Study System: T1, recombinant human IL-12 (rhIL-12) (human, UniProt P29459 23-219; P29460 23-328)
T1 chain 1: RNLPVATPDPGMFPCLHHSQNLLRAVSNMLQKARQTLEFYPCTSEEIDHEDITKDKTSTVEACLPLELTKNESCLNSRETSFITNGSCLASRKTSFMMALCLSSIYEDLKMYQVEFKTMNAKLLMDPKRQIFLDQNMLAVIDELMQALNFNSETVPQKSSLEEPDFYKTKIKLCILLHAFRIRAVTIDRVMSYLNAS
T1 chain 2: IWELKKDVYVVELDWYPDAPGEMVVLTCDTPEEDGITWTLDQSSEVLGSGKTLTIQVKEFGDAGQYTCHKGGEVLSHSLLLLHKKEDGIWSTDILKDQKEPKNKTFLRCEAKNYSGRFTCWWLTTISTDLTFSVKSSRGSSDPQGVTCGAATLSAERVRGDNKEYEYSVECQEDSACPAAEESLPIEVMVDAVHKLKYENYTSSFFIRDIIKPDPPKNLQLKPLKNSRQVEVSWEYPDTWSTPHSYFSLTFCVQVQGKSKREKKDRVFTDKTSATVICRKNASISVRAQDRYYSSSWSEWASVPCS
Protocol Text: BIAcore
Reported Metric: koff (s⁻¹)

{"columns": ["Binder", "Reported Metric", "Recorded Measurement"],
 "data": [
  ["HGSHIN [Y61 H101 I]", "koff", 0.00162],
  ["HGSHDK [Y61 H102 K]", "koff", 0.000405],
  ["HGSHDP [Y61 H102 P]", "koff", 0.00181],
  ["HGSHDR [Y61 H102 R]", "koff", 0.000575],
  ["HGSHDH [Y61 H102 H]", "koff", 0.00018],
  ["HGSHNN [Y61 H101 N]", "koff", 0.00223],
  ["HGSHDS [Y61 H102 S]", "koff", 0.000325],
  ["HGSHVN [Y61 H101 V]", "koff", 0.00163]
]}
